system-tested: Human Factor D (Homo sapiens, UniProt P00746)
Construct: purified from human serum; purchased Complement Technology, Inc; host or cells: human serum (natural protein, not recombinant)
Sequence (P00746 26-253): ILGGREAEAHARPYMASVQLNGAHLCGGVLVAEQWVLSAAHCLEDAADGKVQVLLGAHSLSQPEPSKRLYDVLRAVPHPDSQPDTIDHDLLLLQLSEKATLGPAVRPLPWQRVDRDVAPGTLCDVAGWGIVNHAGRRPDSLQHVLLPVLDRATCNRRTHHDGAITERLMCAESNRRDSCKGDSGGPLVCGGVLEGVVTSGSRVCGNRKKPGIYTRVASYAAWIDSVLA
assay-details: Human Factor D Assay
Type: biochemical
condition-info: Human Factor D 80 nM, substrate Z-L-Lys-SBzl; Table 2; read-out: IC50 (Stars)
Please go through the items and note down their IC50.

Illustrative cases are given below, each with its answer.
>>> result("CC(=O)c1cn(CC(=O)N2[C@H](C(=O)Nc3nc(C(F)(F)F)ccc3C)C[C@@]3(C)C[C@@H]23)c2cc(F)c(-c3cnc4cc(C)nn4c3)cc12")
"< 1000 nM"
>>> result("C#CCC(Cc1ccccc1)NC(=O)[C@@H]1C[C@@]2(C)C[C@H]2N1C(=O)Cn1nc(C(C)=O)c2cc(-c3cnc(C)nc3)cc(C)c21 (stereo partly drawn)")
"< 1000 nM"
>>> result("Cc1ncc(-c2ccc3c(c2)c(C2OCCO2)nn3CC(=O)N2[C@H](C(=O)Nc3nc(Br)ccc3C)C[C@@]3(C)C[C@@H]23)cn1")
"< 1000 nM"

I have 3 molecules here; please give me IC50 for each one.
1. CC(=O)c1nn(CC(=O)N2[C@H](C(=O)N[C@H](C)C3CCCCC3)C[C@@]3(C)C[C@@H]23)c2c(C)cc(-c3cnc(C)nc3)cc12
2. CC(=O)c1nn(CC(=O)N2C[C@H]3C[C@H]3[C@H]2C(=O)Nc2nc(Br)ccc2C)c2ccc(-c3cnc(CO)nc3)cc12
3. CC(=O)c1nn(CC(=O)N2[C@H](C(=O)N[C@H](C)CC3CC3)C[C@@]3(C)C[C@@H]23)c2c(C)cc(-c3cnc(C)nc3)cc12

["< 1000 nM", "< 1000 nM", "< 1000 nM"]

###

system-tested: Human Factor D (Homo sapiens, UniProt P00746)
Construct: purified from human serum; purchased Complement Technology, Inc; host or cells: human serum (natural protein, not recombinant)
assay-details: Human Factor D Assay
Assay type: biochemical
condition-info: Human Factor D 80 nM, substrate Z-L-Lys-SBzl; Table 2; read-out: IC50 (Stars)
pIC50: −log10 of the molar value.
parameter-measured: pIC50

>>> result("CC(=O)c1nn(CC(=S)N2C[C@H](F)C[C@H]2C(=O)Nc2cccc(Br)n2)c2ccc(-c3cnc(C)nc3)cc12")
"5.00 to 6.00"
>>> result("CC(=O)c1nn(CC(=O)N2C[C@H]3C[C@H]3[C@H]2C(=O)Nc2nc(Br)c(F)cc2C)c2c(C)cc(-c3cnc(CO)nc3)cc12")
"> 6.00"
>>> result("Cc1cc(F)c(Br)nc1NC(=O)[C@@H]1C[C@@]2(C)C[C@H]2N1C(=O)Cn1nc(C(N)=O)c2cc(-c3cnc(CO)nc3)nc(C)c21")
"> 6.00"

I have 3 compounds here; please give me pIC50 for each one.
1. CC(=O)c1nn(CC(=O)N2[C@H](C(=O)Nc3nc(Br)ccc3C)C[C@@]3(C)C[C@@H]23)c2ccc(-c3cnc(C(C)O)nc3)cc12 (stereo partly drawn)
2. Cc1ncc(-c2cc3c(C(N)=O)nn(CC(=O)N4C[C@H]5C[C@H]5[C@H]4C(=O)Nc4nc(Br)c(F)cc4C)c3c(C)n2)cn1
3. CC(=O)c1cn(CC(=O)N2[C@H](C(=O)Nc3nc(Br)ccc3C)C[C@@]3(C)C[C@@H]23)c2c(C)cc(-c3cnc4cc(C5CC5)nn4c3)cc12

1. > 6.00
2. > 6.00
3. > 6.00

###

system-tested: Human Factor D (Homo sapiens, UniProt P00746)
Construct: purified from human serum; purchased Complement Technology, Inc; host or cells: human serum (natural protein, not recombinant)
assay-details: Human Factor D Assay
Assay type: biochemical
condition-info: Human Factor D 80 nM, substrate Z-L-Lys-SBzl, assay of Example 3; read-out: IC50 (Stars)
pIC50: −log10 of the molar value.
Please go through the items and note down their pIC50.

>>> result("CC(=O)c1nn(CC(=O)N2[C@H](C(=O)Nc3cccc(C(F)(F)F)c3F)C[C@@]3(C)C[C@@H]23)c2ccc(-c3cnc4cc(C)nn4c3)cc12 [Compound 25]")
"> 6.00"
>>> result("CC(=O)c1nn(CC(=O)N2C[C@H](F)C[C@H]2C(=S)Nc2cccc(Br)n2)c2ccc(-c3cnc(C)nc3)cc12 [Compound 36]")
"> 6.00"

Here's the next entry for you.
What pIC50 appears in the records for this molecule with Human Factor D (Homo sapiens, UniProt P00746)? CC(=O)c1nn(CC(=O)N2[C@H](C(=O)Nc3cccc(C(F)(F)F)c3F)C[C@@]3(C)C[C@@H]23)c2cnc(-c3cnc(C)nc3)cc12 [Compound 23]
> 6.00

###

system-tested: Human Factor D (Homo sapiens)
Construct: purified from human serum; purchased Complement Technology, Inc; host or cells: human serum (natural protein, not recombinant)
assay-details: Human Factor D Assay
Format: biochemical
condition-info: Human Factor D 80 nM, substrate Z-L-Lys-SBzl, assay of Example 3; read-out: IC50 (Stars)
pIC50: −log10 of the molar value.
parameter-measured: pIC50

Illustrative cases are given below, each with its answer.
>>> result("CC(=O)c1nn(CC(=O)N2[C@H](C(=O)Nc3nc(Br)ccc3C)C[C@@]3(CO)C[C@@H]23)c2c(C)cc(-c3cnc(C)nc3)cc12")
"> 6.00"
>>> result("CC(=O)c1nn(CC(=O)N2C[C@H](F)C[C@H]2C(=O)Nc2cccc(Br)n2)c2ccc(-c3ccc(C)cc3)cc12")
"> 6.00"
>>> result("CC(=O)c1nn(CC(=O)N2[C@H](C(=O)NCCc3cc(Cl)ccc3Cl)C[C@@]3(C)C[C@@H]23)c2c(C)cc(-c3cnc(C)nc3)cc12")
"> 6.00"

Here's the next entry for you.
For the compound shown here, "CC(=O)c1nn(CC(=O)N2[C@H](C(=O)Nc3nc(Br)ccc3C)C[C@@]3(CO)C[C@@H]23)c2ccc(-c3cnc(CO)nc3)cc12" , give the reported pIC50.
> 6.00

###

Please go through the items and note down their IC50.
system-tested: Human Factor D (Homo sapiens)
Construct: purified from human serum; purchased Complement Technology, Inc; host or cells: human serum (natural protein, not recombinant)
assay-details: Human Factor D Assay
Type: biochemical
condition-info: Human Factor D 80 nM, substrate Z-L-Lys-SBzl; Table 2; read-out: IC50 (Stars)

>>> result("CC(=O)c1nn(CC(=O)N2[C@H](C(=O)Nc3nc(C(F)(F)F)ccc3C)C[C@@]3(C)C[C@@H]23)c2c(CF)cc(-c3cnc(C)nc3)cc12")
"< 1 µM"
>>> result("CC(=O)c1cn(CC(=O)N2[C@H](C(=O)Nc3nc(Br)ccc3C)C[C@@]3(C)C[C@@H]23)c2c(C)cc(-c3cnc(CO)nc3)cc12")
"< 1 µM"
>>> result("CCCC(C)(C)CNC(=O)[C@@H]1C[C@@]2(C)C[C@H]2N1C(=O)Cn1nc(C(C)=O)c2cc(-c3cnc(C)nc3)cc(C)c21")
"< 1 µM"
>>> result("Cc1ncc(-c2cc3c(C(N)=O)nn(CC(=O)N4[C@H](C(=O)Nc5cncc(Br)n5)C[C@@]5(C)C[C@@H]45)c3c(C)n2)cn1")
"< 1 µM"

I have 8 molecules here; please give me IC50 for each one.
1. Cc1ncc(-c2cc3c(C(N)=O)nn(CC(=O)N4[C@H](C(=O)Nc5nc(Br)c(F)cc5C)C[C@@]5(C)C[C@@H]45)c3c(CO)n2)cn1
2. CC(=O)c1nn(CC(=O)N2[C@H](C(=O)Nc3nc(Br)ccc3C)C[C@@]3(C)C[C@@H]23)c2c(C)cc(-c3cnc(C(C)(C)O)nc3)cc12
3. CC(=O)c1nn(CC(=O)N2C[C@H](F)C[C@H]2C(=O)Nc2cccc(Br)n2)c2c(C)cc(-c3cnc(C(C)O)nc3)cc12 (some centres unmarked)
4. CC(=O)c1nn(CC(=O)N2[C@H](C(=O)Nc3cc(C)cc(Br)n3)C[C@@]3(C)C[C@@H]23)c2c(C)cc(-c3cnc(CO)nc3)cc12
5. CC(=O)c1nn(CC(=O)N2[C@H](C(=O)Nc3nc(Br)ccc3C)C[C@@]3(C)C[C@@H]23)c2c(C)cc(-c3cnc(F)nc3)cc12
6. COc1cc(Br)nc(NC(=O)[C@@H]2C[C@@]3(C)C[C@H]3N2C(=O)Cn2nc(C(N)=O)c3cc(-c4cnc(C)nc4)nc(C)c32)c1
7. COC(=O)c1ncc(-c2cc(C)c3c(c2)c(C(C)=O)nn3CC(=O)N2[C@H](C(=O)Nc3cncc(Br)n3)C[C@@]3(C)C[C@@H]23)cn1
8. CC(=O)c1nn(CC(=O)N2[C@H](C(=O)N[C@@H](c3ccccc3)C(F)(F)F)C[C@@]3(C)C[C@@H]23)c2c(C)cc(-c3cnc(C)nc3)cc12

1: < 1 µM; 2: < 1 µM; 3: < 1 µM; 4: < 1 µM; 5: < 1 µM; 6: < 1 µM; 7: < 1 µM; 8: < 1 µM

I have 4 molecules here; please give me IC50 for each one.
1. CC(=O)c1nn(CC(=O)N2[C@H](C(=O)Nc3nc(Br)ccc3C)C[C@@]3(C)C[C@@H]23)c2ccc(-c3cncc(S(C)(=O)=O)c3)cc12
2. CC(=O)c1nn(CC(=O)N2[C@H](C(=O)NCc3ccc4c(c3)CCCC4)C[C@@]3(C)C[C@@H]23)c2c(C)cc(-c3cnc(C)nc3)cc12
3. CC(=O)c1cn(CC(=O)N2[C@H](C(=O)Nc3nc(C(F)(F)F)ccc3C)C[C@@]3(CF)C[C@@H]23)c2c(C)cc(-c3cnc(C)nc3)cc12
4. CC(=O)c1nn(CC(=O)N2[C@H](C(=O)Nc3nc(Br)ccc3C)C[C@@]3(C)C[C@@H]23)c2c(C)cc(-c3cnc(C4(O)CC4)nc3)cc12

1. < 1 µM
2. < 1 µM
3. < 1 µM
4. < 1 µM
